# Target entity: PBP3 from Acinetobacter baumannii (ATCC 19606) (Acinetobacter baumannii, UniProt A0ABX6CK25)
# Sequence (A0ABX6CK25 64-610): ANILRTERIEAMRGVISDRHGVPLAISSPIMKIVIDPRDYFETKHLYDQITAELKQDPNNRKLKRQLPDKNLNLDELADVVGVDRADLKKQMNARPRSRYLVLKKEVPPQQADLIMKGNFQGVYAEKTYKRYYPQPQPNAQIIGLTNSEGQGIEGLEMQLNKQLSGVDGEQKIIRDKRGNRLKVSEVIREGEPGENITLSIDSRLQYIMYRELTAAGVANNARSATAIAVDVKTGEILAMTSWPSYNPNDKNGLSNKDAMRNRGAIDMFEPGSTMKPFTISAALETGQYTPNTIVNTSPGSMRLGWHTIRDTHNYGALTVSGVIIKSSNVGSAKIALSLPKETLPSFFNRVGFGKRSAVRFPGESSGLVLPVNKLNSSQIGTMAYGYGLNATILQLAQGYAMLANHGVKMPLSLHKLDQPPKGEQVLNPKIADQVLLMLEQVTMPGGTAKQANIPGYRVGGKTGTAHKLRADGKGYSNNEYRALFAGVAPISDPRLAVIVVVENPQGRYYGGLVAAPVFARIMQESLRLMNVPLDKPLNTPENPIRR
# Assay overview: Bocillin-FL fluorescence polarization competition binding, A. baumannii PBP3
# Assay setup: fluorescence polarization competition binding assay using Bocillin-FL; read-out: A. baumannii PBP3 Potency
Metric name: IC50

Completed entries (count: 5):
{"columns": ["Compound", "IC50"],
 "data": [
  ["O=C(NCCCN1CCN(C(=O)NC(C(=O)N[C@H]2Cc3ccc(F)c(C(=O)O)c3OB2O)c2cc(F)c(O)c(O)c2Cl)C1=O)c1ccc(O)cc1 (stereo partly shown)", "< 10 µM"],
  ["CN(CCCN1CCN(C(=O)NC(C(=O)N[C@H]2Cc3ccc(F)c(C(=O)O)c3OB2O)c2cc(F)c(O)c(O)c2Cl)C(=O)C1=O)C(=O)c1cccc(O)c1 (stereo partly shown)", "< 10 µM"],
  ["O=C(O)c1c(F)ccc2c1OB(O)[C@@H](NC(=O)[C@H](NC(=O)N1CCN(C3CCN(C(=O)c4cccnc4)CC3)C1=O)c1cc(F)c(O)c(O)c1Cl)C2", "< 10 µM"],
  ["O=C(NCCCN1CCN(C(=O)NC(C(=O)N[C@H]2Cc3ccc(F)c(C(=O)O)c3OB2O)c2cc(F)c(O)c(O)c2Cl)C(=O)C1=O)c1ccc(O)c(F)c1 (stereo partly shown)", "< 10 µM"],
  ["O=C(CN1CCN(C(=O)N[C@@H](C(=O)N[C@H]2Cc3ccc(F)c(C(=O)O)c3OB2O)c2cc(F)c(O)c(O)c2Cl)C(=O)C1=O)NCc1nccs1", "< 10 µM"]
]}

Report IC50 for O=C(O)c1c(F)ccc2c1OB(O)[C@@H](NC(=O)[C@@H](NC(=O)N1CCN(Cc3ccc(O)c(O)c3Cl)C(=O)C1=O)c1cccc(P(=O)(O)O)c1)C2 (single isomer, unassigned) please. < 10 µM

Please give the result for O=C(O)c1c(F)ccc2c1OB(O)[C@@H](NC(=O)C(NC(=O)N1CCN(C3CCN(C(=O)c4ccc(O)cc4O)CC3)C(=O)C1=O)c1cc(F)c(O)c(O)c1Cl)C2 (stereo partly shown) too. < 10 µM

----------
# System: P. aeruginosa CDC-0095
# Assay overview: microbe, parasite or virus in culture
# Format: cell-based
# Assay setup: Pseudomonas aeruginosa, CDC0095, read-out: Minimum inhibitory concentration, P. aeruginosa CDC-0095
Metric name: MIC

Report MIC for O=C(O)c1c(F)ccc2c1OB(O)[C@@H](NC(=O)C(NC(=O)N1CCN(C3CCN(C(=O)c4cc(O)cc(O)c4)CC3)C(=O)C1=O)c1cc(F)c(O)c(O)c1Cl)C2 (stereo partly drawn) [Example 309] please. 2 to 4 µg/mL

Please give the result for O=C(O)c1c(F)ccc2c1OB(O)[C@@H](NC(=O)C(NC(=O)N1CCN(Cc3ccc(O)c(O)c3Cl)C1=O)c1ccc(P(=O)(O)O)cc1)C2 (stereo partly drawn) [Example 46] too. < 1 µg/mL

Please give the result for O=C(NCCCN1CCN(C(=O)N[C@@H](C(=O)N[C@H]2Cc3ccc(F)c(C(=O)O)c3OB2O)c2cc(F)c(O)c(O)c2Cl)C(=O)C1=O)c1ccc(O)cc1F (racemic) [Example 417] too. 8 to 16 µg/mL

----------
# MIC annotations
# Test system: A. baumannii 1258916
# Assay overview: microbe, parasite or virus in culture
# Type: cell-based, Acinetobacter baumannii
# Assay setup: Acinetobacter baumannii, 1258916, read-out: Minimum inhibitory concentration (MIC), A. baumannii 1258916

Completed entries (count: 3):
{"columns": ["Compound", "MIC"],
 "data": [
  ["O=C(O)c1c(F)ccc2c1OB(O)[C@@H](NC(=O)[C@H](NC(=O)N1CCN(C3CCN(C(=O)Nc4cc(F)c(F)c(O)c4F)CC3)C(=O)C1=O)c1cc(F)c(O)c(O)c1Cl)C2", "< 1 µg/mL"],
  ["O=C(O)c1c(F)ccc2c1OB(O)[C@@H](NC(=O)C(NC(=O)N1CCN(C3CCN(C(=O)Nc4ccc(F)c(O)c4F)CC3)C(=O)C1=O)c1cc(F)c(O)c(O)c1Cl)C2 (stereo partly drawn)", "< 1 µg/mL"],
  ["O=C(O)c1c(F)ccc2c1OB(O)[C@@H](NC(=O)[C@H](NC(=O)N1CCN(C3CCN(C(=O)c4ccc(O)c(O)c4Cl)CC3)C1=O)c1ccc(P(=O)(O)O)cc1)C2", "< 1 µg/mL"]
]}

Report MIC for O=C(O)c1cccc2c1OB(O)[C@@H](NC(=O)[C@H](NC(=O)N1CCN(S(=O)(=O)c3ccc(O)c(O)c3Cl)C1=O)c1ccc(P(=O)(O)O)cc1)C2 please. < 1 µg/mL

Please give the result for O=C(O)c1c(F)ccc2c1OB(O)[C@@H](NC(=O)C(NC(=O)N1CCN(C3CCN(C(=O)Nc4c(F)ccc(O)c4F)CC3)C(=O)C1=O)c1cc(F)c(O)c(O)c1Cl)C2 (stereo partly drawn) too. < 1 µg/mL

Please give the result for O=C(O)c1c(F)ccc2c1OB(O)[C@@H](NC(=O)[C@H](NC(=O)N1CCN(C3CCN(C(=O)c4cc(F)c(O)c(O)c4Cl)CC3)C1=O)c1ccc(P(=O)(O)O)cc1)C2 (single isomer, unassigned) too. < 1 µg/mL

Taken from patent US20240270762A1.
